- measuredOn: human TRPA1 (polypeptide of SEQ ID NO:2) (Homo sapiens, UniProt O75762, K186N/R3C/R58T)
- Sequence (O75762 whole entry R3C/R58T/K186N): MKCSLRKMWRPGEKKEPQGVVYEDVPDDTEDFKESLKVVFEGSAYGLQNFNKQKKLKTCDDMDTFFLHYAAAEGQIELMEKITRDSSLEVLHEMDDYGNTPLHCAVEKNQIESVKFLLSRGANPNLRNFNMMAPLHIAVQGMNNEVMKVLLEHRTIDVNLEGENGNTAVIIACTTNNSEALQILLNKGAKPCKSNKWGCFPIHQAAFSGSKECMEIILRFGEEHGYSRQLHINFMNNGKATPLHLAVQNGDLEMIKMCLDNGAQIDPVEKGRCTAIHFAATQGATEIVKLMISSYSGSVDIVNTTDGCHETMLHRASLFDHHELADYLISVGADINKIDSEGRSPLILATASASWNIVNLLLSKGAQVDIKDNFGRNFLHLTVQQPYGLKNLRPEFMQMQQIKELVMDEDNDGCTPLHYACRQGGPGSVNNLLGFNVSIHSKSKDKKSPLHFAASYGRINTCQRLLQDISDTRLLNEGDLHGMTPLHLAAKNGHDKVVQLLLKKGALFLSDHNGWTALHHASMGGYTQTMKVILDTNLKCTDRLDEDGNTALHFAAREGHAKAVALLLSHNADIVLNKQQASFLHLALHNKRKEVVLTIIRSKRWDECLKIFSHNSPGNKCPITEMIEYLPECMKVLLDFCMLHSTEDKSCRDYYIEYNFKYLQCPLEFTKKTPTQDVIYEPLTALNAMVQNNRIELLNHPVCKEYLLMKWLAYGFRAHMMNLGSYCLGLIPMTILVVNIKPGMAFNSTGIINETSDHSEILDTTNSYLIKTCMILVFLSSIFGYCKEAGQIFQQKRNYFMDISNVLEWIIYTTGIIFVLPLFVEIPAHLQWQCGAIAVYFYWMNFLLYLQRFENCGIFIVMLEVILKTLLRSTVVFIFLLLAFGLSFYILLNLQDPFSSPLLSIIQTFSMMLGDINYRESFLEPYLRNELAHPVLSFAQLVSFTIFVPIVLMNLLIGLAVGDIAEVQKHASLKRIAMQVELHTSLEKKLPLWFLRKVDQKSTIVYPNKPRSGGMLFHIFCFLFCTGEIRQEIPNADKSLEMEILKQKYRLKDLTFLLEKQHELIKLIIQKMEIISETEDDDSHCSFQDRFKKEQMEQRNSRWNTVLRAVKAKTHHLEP
- assayInfo: Intracellular calcium by FLIPR in CHO-K1 cells expressing human TRPA1 (activator screening)
quantity: EC50 (µM)
Provide the reading as a plain figure in µM.

Give EC50 for the following compound: C=CC=O 7
